Assay: Hypoxia cytotoxicity ratio (dose in air / hypoxia giving 99% of cell killing)
measured_attribute: Selectivity
Answers are plain numbers.

molecule: N#Cc1c(N)[n+]([O-])c2cc(-c3ccc([N+](=O)[O-])cc3)ccc2[n+]1[O-]
measured_attribute: Selectivity
assay_value: 15

molecule: N#Cc1ccc2c(c1)[n+]([O-])c(N)c(C#N)[n+]2[O-]
measured_attribute: Selectivity
assay_value: 50

molecule: N#Cc1c(N)[n+]([O-])c2cc(Cl)ccc2[n+]1[O-]
measured_attribute: Selectivity
assay_value: 150

molecule: Nc1n[n+]([O-])c2ccccc2[n+]1[O-] [TIRAPAZAMINE]
measured_attribute: Selectivity
assay_value: 75

molecule: N#Cc1c(N)[n+]([O-])c2ccccc2[n+]1[O-]
measured_attribute: Selectivity
assay_value: 80

molecule: N#Cc1c(N)[n+]([O-])c2cc(F)ccc2[n+]1[O-]
measured_attribute: Selectivity
assay_value: 100

molecule: N#Cc1c(N)[n+]([O-])c2cc(Cl)c(Cl)cc2[n+]1[O-]
measured_attribute: Selectivity
assay_value: 80

molecule: N#Cc1c(N)[n+]([O-])c2cc(C(F)(F)F)ccc2[n+]1[O-]
measured_attribute: Selectivity
assay_value: 75

Moving on to another molecule below.
What value of Selectivity has been recorded for this entry: `N#Cc1c(N)[n+]([O-])c2cc(Cl)c(F)cc2[n+]1[O-]`
10

Reference source for all entries: ChEMBL document CHEMBL1128366
